# TARGET_SYSTEM: UniProt:Q12809
# Sequence (Q12809 whole entry): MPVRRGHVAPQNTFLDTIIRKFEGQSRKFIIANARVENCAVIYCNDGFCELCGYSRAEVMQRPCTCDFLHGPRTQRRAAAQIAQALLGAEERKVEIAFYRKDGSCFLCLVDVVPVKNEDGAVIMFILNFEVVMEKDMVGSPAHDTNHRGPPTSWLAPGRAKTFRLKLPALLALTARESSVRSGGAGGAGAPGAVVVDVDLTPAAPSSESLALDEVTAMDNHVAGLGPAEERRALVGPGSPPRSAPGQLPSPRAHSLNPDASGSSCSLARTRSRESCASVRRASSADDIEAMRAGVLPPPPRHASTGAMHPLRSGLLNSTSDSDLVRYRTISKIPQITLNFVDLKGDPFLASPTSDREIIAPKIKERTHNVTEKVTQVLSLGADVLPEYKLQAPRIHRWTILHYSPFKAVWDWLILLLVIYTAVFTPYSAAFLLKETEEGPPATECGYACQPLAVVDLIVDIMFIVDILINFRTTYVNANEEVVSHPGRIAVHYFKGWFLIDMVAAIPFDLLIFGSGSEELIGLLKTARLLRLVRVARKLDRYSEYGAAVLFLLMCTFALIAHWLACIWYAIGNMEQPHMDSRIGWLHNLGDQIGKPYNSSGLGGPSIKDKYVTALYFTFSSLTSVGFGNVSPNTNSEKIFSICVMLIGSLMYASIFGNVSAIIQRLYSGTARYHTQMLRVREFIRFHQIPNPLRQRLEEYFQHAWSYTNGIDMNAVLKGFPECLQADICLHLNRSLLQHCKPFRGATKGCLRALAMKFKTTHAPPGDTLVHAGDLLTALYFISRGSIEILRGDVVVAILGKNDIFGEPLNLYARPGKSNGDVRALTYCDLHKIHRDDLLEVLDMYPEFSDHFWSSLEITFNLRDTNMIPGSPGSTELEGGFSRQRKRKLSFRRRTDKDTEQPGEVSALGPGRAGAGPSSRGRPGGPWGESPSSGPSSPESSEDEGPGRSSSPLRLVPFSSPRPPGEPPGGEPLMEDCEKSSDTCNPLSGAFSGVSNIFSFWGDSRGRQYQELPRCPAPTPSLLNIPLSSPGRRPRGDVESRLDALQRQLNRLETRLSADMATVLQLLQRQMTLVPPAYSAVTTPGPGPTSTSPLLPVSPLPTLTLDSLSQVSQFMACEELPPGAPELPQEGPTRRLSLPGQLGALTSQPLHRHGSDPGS
# EXPERIMENT: Displacement binding assay using radio-labeled MK-499
# CONDITIONS_USED: 10 μM
PROPERTY_NAME: % MK-499 Binding Inhibition @ 10 μM
Report the figure along with its unit, number first.

Input: Kindly indicate its recorded % MK-499 Binding Inhibition @ 10 μM. Item: COC(=O)NCc1ccc(C(=O)Nc2cc(-c3ccccc3)ccc2N)cc1 [Example 14f]
Output: 28%

Input: Kindly indicate its recorded % MK-499 Binding Inhibition @ 10 μM. Item: Nc1ccc(-c2ccccc2)cc1NC(=O)c1ccc(CNC(=O)C2CCCCC2)cc1 [Example 14i]
Output: 30%

Input: Kindly indicate its recorded % MK-499 Binding Inhibition @ 10 μM. Item: CCC(=O)NCc1ccc(C(=O)Nc2cc(-c3ccccc3)ccc2N)cc1 [Example 14h]
Output: 24%

Input: Kindly indicate its recorded % MK-499 Binding Inhibition @ 10 μM. Item: CCOC(=O)NCc1ccc(C(=O)Nc2cc(-c3ccccc3)ccc2N)cc1 [Example 14e]
Output: 40%

Input: Kindly indicate its recorded % MK-499 Binding Inhibition @ 10 μM. Item: CCCC(=O)NCc1ccc(C(=O)Nc2cc(-c3ccccc3)ccc2N)cc1 [Example 14g]
Output: 38%

Input: Kindly indicate its recorded % MK-499 Binding Inhibition @ 10 μM. Item: Nc1ccc(-c2ccccc2)cc1NC(=O)c1ccc(CNC(=O)OCc2ccccn2)cc1 [Example 14b]
Output: 51%

Cited source for all entries: patent US9096559B2
